# Test system: NCI-H226 lung
# protocol_summary: NCI-60 one-dose screen, 48 h
# condition_summary: 10 µM unless noted
The panel holds about 83,000 compounds, 20% with a hit somewhere; the sample as a whole holds those more often. Calls of active or inactive are those of the source. Rule for the calls: active = growth percent below 10; inactive = the rest.
Possible outcomes: active, inactive

>  <compound>
COc1cc(/C=C2\CN(C(=O)CCN3CCC(=NO)CC3)C/C(=C\c3cc(OC)c(OC)c(OC)c3)C2=O)cc(OC)c1OC

>  <assigned_class>
active

$$$$
>  <compound>
COc1ccc2nc3cc(Cl)ccc3c(N3CCN(c4nccc(Nc5ccc(Cl)cc5)n4)CC3)c2c1

>  <assigned_class>
inactive

$$$$
>  <compound>
Oc1cccc(Nc2nccc(-c3ccc4ccccc4c3)n2)c1

>  <assigned_class>
inactive

$$$$
>  <compound>
Cc1ccc(/C=C2\Oc3cc(OCC(=O)c4ccc(Cl)cc4)ccc3C2=O)cc1

>  <assigned_class>
inactive

$$$$
>  <compound>
C=C(CN1CCN(c2cccc(C(F)(F)F)n2)CC1)c1ccc(C(=O)Nc2ccccc2N)cc1

>  <assigned_class>
inactive

$$$$
>  <compound>
COc1cccc(-c2nc3sccn3c2-c2ccnc(NCCCNS(=O)(=O)c3ccccc3)c2)c1

>  <assigned_class>
inactive

$$$$
>  <compound>
N=S(=O)(NC(=O)c1ccc(Cl)cc1Cl)c1ccc(Br)s1 (stereo not given)

>  <assigned_class>
inactive

$$$$
>  <compound>
COc1ccc(/C=C/C(=O)c2c(O)c(C)c(O)c3c2OC2=CC(O)=C(C(C)=O)C(=O)[C@]23C)cc1

>  <assigned_class>
active

$$$$
>  <compound>
O=C1C[C@H](N2C(=O)c3ccccc3S2(=O)=O)C2CO[C@@H]1O2

>  <assigned_class>
inactive

$$$$
>  <compound>
O=C(O)c1ccc(=O)[nH]n1

>  <assigned_class>
inactive

$$$$
